# Assay Details: physchem
# Condition Notes: water, thermodynamic from solid

# Test Smiles, U, solubility at 3 days
rows = [
    ("C=C1CC[C@H](O)C/C1=C/C=C1\\CCC[C@]2(C)[C@@H]([C@H](C)CCCC(C)C)CC[C@@H]12", "µM", 1.6),
]
